Target: GLP-1R (Homo sapiens)
Construct: host or cells: CRE-bla CHO-K1
Test: EC20 GLP-1(9-36) PAM cAMP assay: dose response of compound in the presence of fixed concentration of GLP-1(9-36)
Type: cell-based
Settings: Emax as total cAMP; compound dose response with fixed GLP-1(9-36); GLP-1R CRE-bla CHO-K1 cells
EC20 GLP-1 (9-36) PAM Activity max cAMP reference
MEASUREMENT_LABEL: EC20 GLP-1 (9-36) PAM Activity max cAMP (µM)

* CCCCCCCCCOc1ccc(C(=O)Oc2ccc(CN(CC(=O)O)C(=O)c3ccc(NC(=O)Cc4ccc(OC)cc4)cc3)cc2)cc1 [Compound 16] | 0.293
* COc1ccc(CC(=O)Nc2ccc(C(=O)N(CC(=O)O)Cc3ccc(-c4nc(-c5ccc(C)cc5)no4)cc3)cc2)c(C(F)(F)F)c1 [Compound 363] | 0.237
* CCCCCCCCOc1ccc(C(=O)Oc2ccc(CN(CC(=O)O)C(=O)c3ccc(NC(=O)Cc4ccc(OC)cc4)cc3)cc2)cc1 [Compound 17] | 0.281
* CCCCCCCOc1ccc(C(=O)Oc2ccc(CN(CC(=O)O)C(=O)c3ccc(NC(=O)Cc4ccc(OC)cc4)cc3)cc2)cc1 [Compound 1] | 0.24
* COc1ccc(CC(=O)Nc2ccc(C(=O)N(CC(=O)O)Cc3ccc(-c4coc(-c5ccc(-c6ccc(C)cc6)cc5)n4)cc3)cc2)c(C(F)(F)F)c1 [Compound 364] | 0.278
* COc1ccc(F)c(CC(=O)Nc2ccc(C(=O)N(CC(=O)O)Cc3ccc(-c4noc(-c5ccc(-c6ccc(C)cc6)cc5)n4)cc3)cc2)c1F [Compound 441] | 0.167

----------
We begin with a simple list: items and their reported bioavailability.
Assay: Determination of absolute oral bioavailability in rats
Format: in vivo
Conditions: rat, plasma; fasted female Sprague-Dawley rats; oral solution 5 mg/kg, intravenous 1 mg/kg
MEASUREMENT_LABEL: bioavailability (%)

- COc1ccc(CC(=O)Nc2ccc(C(=O)N(CC(=O)O)Cc3ccc(-c4noc(-c5ccc(-c6ccc(C)cc6)cc5)n4)cc3)cc2)c(C(F)(F)F)c1: 2
- COc1cccc(OC)c1CC(=O)Nc1ccc(C(=O)N(CC(=O)O)Cc2ccc(-c3nc(-c4ccc(-c5ccc(C)cc5)cc4)no3)cc2)cc1: 14.8
- COc1ccc(CC(=O)Nc2ccc(C(=O)N(CC(=O)O)Cc3ccc(-c4nc(-c5ccc(-c6ccc(C)cc6)cc5)no4)cc3)cc2)c(C(F)(F)F)c1: 8
- COc1ccc(CC(=O)Nc2ccc(C(=O)N(CC(=O)O)Cc3ccc(-c4noc(-c5ccc(-c6ccc(C)cc6)cc5)n4)cc3)c(F)c2)c(C(F)(F)F)c1: 7
- COc1ccc(CC(=O)Nc2ccc(C(=O)N(CC(=O)O)Cc3ccc(-c4coc(-c5ccc(-c6ccc(C)cc6)cc5)n4)cc3)cc2)c(C(F)(F)F)c1: 10
- COc1ccc(CC(=O)Nc2ccc(C(=O)N(CC(=O)O)Cc3ccc(-c4noc(-c5ccc(C)cc5)n4)cc3)cc2)c(C(F)(F)F)c1: 2

----------
Target: GLP-1R (Homo sapiens)
Test: EC20 GLP-1(9-36) PAM cAMP assay: dose response of compound in the presence of fixed concentration of GLP-1(9-36)
Conditions: compound dose response with fixed GLP-1(9-36); GLP-1R CRE-bla CHO-K1 cells, cAMP
The entries below come with measured EC50 values attached.
MEASUREMENT_LABEL: EC50

• COc1ccc(CC(=O)Nc2ccc(C(=O)N(CC(=O)O)Cc3ccc(OC(=O)c4ccc(-c5ccc(C)cc5)cc4)cc3)cc2)c(C(F)(F)F)c1 [Compound 192] = 1300 nM
• COc1ccc(OC)c(CC(=O)Nc2ccc(C(=O)N(CC(=O)O)Cc3ccc(-c4noc(-c5ccc(-c6ccc(C)cc6)cc5)n4)cc3)cc2)c1 [Compound 405] = 300 nM
• CCCCCCCOc1ccc(C(=O)Oc2ccc(CN(CC(=O)O)C(=O)c3ccc(NC(=O)Cc4ccc(OC)cc4)cc3)cc2)cc1 [Compound 1] = 3600 nM

----------
Biological target: GLP-1R (Homo sapiens, UniProt P43220)
Sequence (P43220 24-463): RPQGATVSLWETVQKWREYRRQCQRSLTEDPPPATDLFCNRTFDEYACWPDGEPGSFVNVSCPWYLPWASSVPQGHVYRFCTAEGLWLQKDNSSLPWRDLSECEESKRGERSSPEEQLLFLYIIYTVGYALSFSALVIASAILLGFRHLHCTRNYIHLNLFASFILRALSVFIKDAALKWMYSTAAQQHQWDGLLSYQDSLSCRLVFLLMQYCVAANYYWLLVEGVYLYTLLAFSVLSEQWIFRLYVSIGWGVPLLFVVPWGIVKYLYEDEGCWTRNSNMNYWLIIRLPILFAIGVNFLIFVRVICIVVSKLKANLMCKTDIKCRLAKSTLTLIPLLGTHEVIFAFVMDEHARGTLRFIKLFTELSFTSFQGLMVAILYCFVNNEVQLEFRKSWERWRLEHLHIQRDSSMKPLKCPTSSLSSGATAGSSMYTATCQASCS
Sequence (P01275 100-127 partner limits assumed): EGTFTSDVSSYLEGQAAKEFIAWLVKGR
Assay: EC20 GLP-1(9-36) PAM cAMP assay: dose response of compound in the presence of fixed concentration of GLP-1(9-36)
Conditions: compound dose response with fixed GLP-1(9-36); GLP-1R CRE-bla CHO-K1 cells, cAMP
MEASUREMENT_LABEL: EC50

• COc1cccc(OC)c1CC(=O)Nc1ccc(C(=O)N(CC(=O)O)Cc2ccc(-c3noc(-c4ccc(-c5ccc(C)cc5)cc4)n3)cc2)cc1 = 0.2 µM
• CCCCCCCOc1ccc(C(=O)Oc2ccc(CN(CC(=O)O)C(=O)c3ccc(NC(=O)Cc4ccc(OC)cc4C(F)(F)F)cc3)cc2)cc1 = 1.3 µM
• CCCCCCCOc1ccc(C(=O)Oc2ccc(CN(CC(=O)O)C(=O)c3ccc(NC(=O)Cc4ccc(C)c(OC)c4)cc3)cc2)cc1 = 2.4 µM
• COc1ccc(CC(=O)Nc2ccc(C(=O)N(CC(=O)O)Cc3ccc(OC(=O)c4ccc(C5CCCCC5)cc4)cc3)cc2)cc1 = 2.5 µM
• CCCCCCCCOc1ccc(C(=O)Oc2ccc(CN(CC(=O)O)C(=O)c3ccc(NC(=O)Cc4ccc(OC)cc4)cc3)cc2)cc1 = 1.5 µM
• COc1ccc(OC)c(CC(=O)Nc2ccc(C(=O)N(CC(=O)O)Cc3ccc(-c4nc(-c5ccc(-c6ccc(C)cc6)cc5)no4)cc3)cc2)c1 = 0.2 µM

----------
bioavailability reference
Assay: Determination of absolute oral bioavailability in rats
Type: in vivo
Settings: rat, plasma; fasted female Sprague-Dawley rats; oral solution 5 mg/kg, intravenous 1 mg/kg
MEASUREMENT_LABEL: bioavailability (%)

* COc1ccc(CC(=O)Nc2ccc(C(=O)N(CC(=O)O)Cc3ccc(-c4nc(-c5ccc(-c6ccc(C)cc6)cc5)co4)cc3)cc2)c(C(F)(F)F)c1 | 2
* COc1ccc(F)c(CC(=O)Nc2ccc(C(=O)N(CC(=O)O)Cc3ccc(-c4noc(-c5ccc(-c6ccc(C)cc6)cc5)n4)cc3)cc2)c1F | 5
* COc1ccc(OC)c(CC(=O)Nc2ccc(C(=O)N(CC(=O)O)Cc3ccc(-c4nc(-c5ccc(-c6ccc(C)cc6)cc5)no4)cc3)cc2)c1 | 19.4
* COc1cccc(OC)c1CC(=O)Nc1ccc(C(=O)N(CC(=O)O)Cc2ccc(-c3noc(-c4ccc(-c5ccc(C)cc5)cc4)n3)cc2)cc1 | 10
* COc1ccc(OC)c(CC(=O)Nc2ccc(C(=O)N(CC(=O)O)Cc3ccc(-c4noc(-c5ccc(-c6ccc(C)cc6)cc5)n4)cc3)cc2)c1 | 8
* COc1ccc(CC(=O)Nc2ccc(C(=O)N(CC(=O)O)Cc3ccc(-c4nc(-c5ccc(C)cc5)no4)cc3)cc2)c(C(F)(F)F)c1 | 3

----------
Biological target: GLP-1R (Homo sapiens, UniProt P43220)
Construct: host or cells: CRE-bla CHO-K1
Assay: EC20 GLP-1(9-36) PAM cAMP assay: dose response of compound in the presence of fixed concentration of GLP-1(9-36)
Assay type: cell-based
Details: Emax as total cAMP; compound dose response with fixed GLP-1(9-36); GLP-1R CRE-bla CHO-K1 cells
Below, each entry is listed with its recorded EC20 GLP-1 (9-36) PAM Activity max cAMP.
MEASUREMENT_LABEL: EC20 GLP-1 (9-36) PAM Activity max cAMP (µM)

- COc1ccc(CC(=O)Nc2ccc(C(=O)N(CC(=O)O)Cc3ccc(OC(=O)c4ccc(-c5ccc(C)cc5)cc4)cc3)cc2)c(C(F)(F)F)c1 [Compound 192]: 0.248
- COc1ccc(OC)c(CC(=O)Nc2ccc(C(=O)N(CC(=O)O)Cc3ccc(-c4nc(-c5ccc(-c6ccc(C)cc6)cc5)no4)cc3)cc2)c1 [Compound 457]: 0.266
- COc1ccc(CC(=O)Nc2ccc(C(=O)N(CC(=O)O)Cc3ccc(-c4nc(-c5ccc(-c6ccc(C)cc6)cc5)no4)cc3)cc2)c(C(F)(F)F)c1 [Compound 362]: 0.281
- COc1ccc(CC(=O)Nc2ccc(C(=O)N(CC(=O)O)Cc3ccc(-c4n[nH]c(-c5ccc(-c6ccc(C)cc6)cc5)n4)cc3)cc2)c(C(F)(F)F)c1 [Compound 361]: 0.234
- CCCCCCCOc1ccc(C(=O)Oc2ccc(CN(CC(=O)O)C(=O)c3ccc(NC(=O)Cc4ccc(OC)cc4C(F)(F)F)cc3)cc2)cc1 [Compound 3]: 0.284
- COc1cccc(OC)c1CC(=O)Nc1ccc(C(=O)N(CC(=O)O)Cc2ccc(-c3nc(-c4ccc(-c5ccc(C)cc5)cc4)no3)cc2)cc1 [Compound 458]: 0.302
- COc1ccc(CC(=O)Nc2ccc(C(=O)N(CC(=O)O)Cc3ccc(OC(=O)c4ccc(C5CCCCC5)cc4)cc3)cc2)cc1 [Compound 39]: 0.273
- COc1ccc(CC(=O)Nc2ccc(C(=O)N(CC(=O)O)Cc3ccc(OC(=O)c4ccc(OCCC(C)C)cc4)cc3)cc2)cc1 [Compound 46]: 0.252
- COc1ccc(CC(=O)Nc2ccc(C(=O)N(CC(=O)O)Cc3ccc(-c4noc(-c5ccc(-c6ccc(C)cc6)cc5)n4)cc3)c(F)c2)c(C(F)(F)F)c1 [Compound 496]: 0.31
- COc1ccc(CC(=O)Nc2ccc(C(=O)N(CC(=O)O)Cc3ccc(OC(=O)c4ccc(-c5ccc(C)cc5)cc4)cc3)c(OC)c2)c(C(F)(F)F)c1 [Compound 314]: 0.307
- COc1cccc(OC)c1CC(=O)Nc1ccc(C(=O)N(CC(=O)O)Cc2ccc(-c3noc(-c4ccc(-c5ccc(C)cc5)cc4)n3)cc2)cc1 [Compound 411]: 0.258
- COc1ccc(CC(=O)Nc2ccc(C(=O)N(CC(=O)O)Cc3ccc(-c4noc(-c5ccc(C)cc5)n4)cc3)cc2)c(C(F)(F)F)c1 [Compound 355]: 0.266
